// data source = patent US9546164B2

# Assay target: hNav1.7 (Homo sapiens (Human), UniProt Q15858)
# Sequence (Q15858 other isoform, or with tags, fused parts or gaps): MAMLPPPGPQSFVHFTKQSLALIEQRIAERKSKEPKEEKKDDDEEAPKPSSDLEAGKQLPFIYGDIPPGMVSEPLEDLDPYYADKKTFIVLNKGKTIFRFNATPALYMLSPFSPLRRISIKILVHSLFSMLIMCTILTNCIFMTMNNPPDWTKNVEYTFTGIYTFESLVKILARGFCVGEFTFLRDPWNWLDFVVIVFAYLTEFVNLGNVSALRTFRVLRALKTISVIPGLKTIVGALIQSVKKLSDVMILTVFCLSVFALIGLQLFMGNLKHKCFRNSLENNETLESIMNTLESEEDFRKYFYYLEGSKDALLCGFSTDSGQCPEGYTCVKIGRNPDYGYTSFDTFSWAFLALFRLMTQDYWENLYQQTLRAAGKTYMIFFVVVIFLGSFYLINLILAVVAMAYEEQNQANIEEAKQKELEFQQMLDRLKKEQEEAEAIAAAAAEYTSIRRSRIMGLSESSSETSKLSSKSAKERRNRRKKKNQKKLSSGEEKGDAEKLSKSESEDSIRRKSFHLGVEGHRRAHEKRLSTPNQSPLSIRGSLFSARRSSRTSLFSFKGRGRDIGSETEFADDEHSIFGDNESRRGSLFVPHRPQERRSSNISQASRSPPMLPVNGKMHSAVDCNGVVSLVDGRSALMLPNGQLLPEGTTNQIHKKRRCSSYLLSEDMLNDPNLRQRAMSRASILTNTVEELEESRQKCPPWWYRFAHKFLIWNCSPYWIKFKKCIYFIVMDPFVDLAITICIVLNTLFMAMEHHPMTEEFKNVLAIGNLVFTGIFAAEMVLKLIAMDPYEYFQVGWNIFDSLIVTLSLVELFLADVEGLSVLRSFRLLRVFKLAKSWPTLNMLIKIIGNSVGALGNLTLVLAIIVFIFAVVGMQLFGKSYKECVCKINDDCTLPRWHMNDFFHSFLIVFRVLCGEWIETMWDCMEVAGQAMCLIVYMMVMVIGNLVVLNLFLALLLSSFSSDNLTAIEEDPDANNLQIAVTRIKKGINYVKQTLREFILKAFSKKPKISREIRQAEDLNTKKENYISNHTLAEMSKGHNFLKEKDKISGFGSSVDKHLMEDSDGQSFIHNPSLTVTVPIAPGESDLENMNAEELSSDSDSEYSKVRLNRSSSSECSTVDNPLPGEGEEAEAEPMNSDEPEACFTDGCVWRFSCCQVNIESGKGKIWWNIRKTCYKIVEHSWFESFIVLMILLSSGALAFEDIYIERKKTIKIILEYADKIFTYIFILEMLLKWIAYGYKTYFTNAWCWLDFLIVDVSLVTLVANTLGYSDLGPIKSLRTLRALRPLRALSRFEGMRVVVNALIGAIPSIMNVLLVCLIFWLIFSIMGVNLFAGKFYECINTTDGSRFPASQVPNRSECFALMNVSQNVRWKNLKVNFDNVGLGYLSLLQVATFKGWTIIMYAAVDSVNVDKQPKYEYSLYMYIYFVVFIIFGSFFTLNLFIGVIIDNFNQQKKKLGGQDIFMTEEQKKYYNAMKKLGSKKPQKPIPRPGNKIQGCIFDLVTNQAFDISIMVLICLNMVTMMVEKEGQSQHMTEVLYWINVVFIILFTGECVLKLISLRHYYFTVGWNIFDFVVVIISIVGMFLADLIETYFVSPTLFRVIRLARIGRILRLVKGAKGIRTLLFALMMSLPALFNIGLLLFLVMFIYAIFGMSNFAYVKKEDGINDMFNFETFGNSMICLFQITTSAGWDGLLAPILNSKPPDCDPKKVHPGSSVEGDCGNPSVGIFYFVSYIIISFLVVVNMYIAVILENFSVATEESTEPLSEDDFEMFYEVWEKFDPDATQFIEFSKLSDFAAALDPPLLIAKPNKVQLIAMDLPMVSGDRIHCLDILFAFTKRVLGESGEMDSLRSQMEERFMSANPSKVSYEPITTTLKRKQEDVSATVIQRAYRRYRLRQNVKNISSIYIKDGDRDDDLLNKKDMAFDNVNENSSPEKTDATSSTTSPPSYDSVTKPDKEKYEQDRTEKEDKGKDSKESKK
# Sequence (Q07699 19-218 partner): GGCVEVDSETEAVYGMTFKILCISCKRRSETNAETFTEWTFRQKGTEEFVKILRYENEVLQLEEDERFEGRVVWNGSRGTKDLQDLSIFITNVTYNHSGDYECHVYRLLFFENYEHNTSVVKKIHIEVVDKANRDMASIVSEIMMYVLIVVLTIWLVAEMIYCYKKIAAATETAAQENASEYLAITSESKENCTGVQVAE
# Method notes: Tritiated sulfonamide competitive binding to membranes from cells expressing hNav1.7 and the β1 subunit;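 note: Filter-bound radioactivity counted by liquid scintillation, nonspecific binding defined with excess unlabelled ligand, IC50 fitted to percent inhibition of specific binding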
# Condition context: read-out: Ligand Binding Assay; 100 pM [3H]compound, membranes with hNav1.7 and β1 subunit, 18 h, room temperature
pIC50: −log10 of the molar value. Where a name gives a salt, the structure may show the parent alone.

{"Compound": "O=C(NS(=O)(=O)C1CC1)c1cc(C2CC2)c(OCC2CCN(C(=O)c3ccc(Cl)cc3Cl)CC2)cc1F [Example 258]", "Assay target": "hNav1.7 (Homo sapiens (Human), UniProt Q15858)", "pIC50": 7.19}
{"Compound": "CCC(c1cc(Cl)cc(Cl)c1)N1CC(COc2cc(F)c(C(=O)NS(C)(=O)=O)cc2C2CC2)C1 (stereo not shown) [Example 158]", "Assay target": "hNav1.7 (Homo sapiens (Human), UniProt Q15858)", "pIC50": 7.91}
{"Compound": "O=C(NS(=O)(=O)C1CC1)c1cc(C2CC2)c(OCC2CCN(S(=O)(=O)c3ccccc3C(F)(F)F)CC2)cc1F [Example 371]", "Assay target": "hNav1.7 (Homo sapiens (Human), UniProt Q15858)", "pIC50": 7.69}
{"Compound": "CS(=O)(=O)NC(=O)c1cc(C2CC2)c(OCC2CCN(Cc3cc(C(F)(F)F)cc(Cl)c3F)CC2)cc1F [Example 581]", "Assay target": "hNav1.7 (Homo sapiens (Human), UniProt Q15858)", "pIC50": 8.42}
{"Compound": "O=C(NS(=O)(=O)N1CCC1)c1cc(C2CC2)c(CN2CCO[C@H](Cc3ccc(F)cc3Cl)C2)cc1F [Example 468, trifluoroacetic acid salt]", "Assay target": "hNav1.7 (Homo sapiens (Human), UniProt Q15858)", "pIC50": 7.95}
{"Compound": "CS(=O)(=O)NC(=O)c1cc(C2CC2)c(OCC2CCN(Cc3cnc(OCC(F)(F)F)c(Cl)c3)CC2)cc1F [Example 190]", "Assay target": "hNav1.7 (Homo sapiens (Human), UniProt Q15858)", "pIC50": 7.25}
{"Compound": "C[C@H]1[C@H](Oc2cc(F)c(C(=O)NS(C)(=O)=O)cc2C2CC2)CCCN1Cc1cc(Cl)cc(Cl)c1 [Example 331, trifluoroacetic acid salt]", "Assay target": "hNav1.7 (Homo sapiens (Human), UniProt Q15858)", "pIC50": 7.49}
